Value source: ChEMBL document CHEMBL1139902

assay: Cmax in Wistar rat at 10 mg/kg. po; assay type: ADME, organism-based; set-up: dose 10 mg/kg, route oral; conditions: in vivo

SMILES_RECORD	Cmax
CC(C)[C@@H](CNc1ccc(OC(F)(F)F)cc1)NC(=O)[C@@H](CC(=O)N1CCOCC1)c1ccc(F)cc1	629 nM
COc1ccc([C@H](CC(=O)N2CCOCC2)C(=O)N[C@H](CNc2ccc(OC(F)(F)F)cc2)C(C)C)cc1	789 nM
CC(C)[C@@H](CNc1ccc(OC(F)(F)F)cc1)NC(=O)[C@@H](CC(=O)N1CCOCC1)c1ccc(Cl)cc1	720 nM
C[C@@H](CN1CCc2cc(F)ccc21)NC(=O)[C@@H](CC(=O)N1CCOCC1)CC1CCCCC1	24 nM

---

Biological target: Cathepsin K (Homo sapiens, UniProt P43235)
Sequence (P43235 whole entry): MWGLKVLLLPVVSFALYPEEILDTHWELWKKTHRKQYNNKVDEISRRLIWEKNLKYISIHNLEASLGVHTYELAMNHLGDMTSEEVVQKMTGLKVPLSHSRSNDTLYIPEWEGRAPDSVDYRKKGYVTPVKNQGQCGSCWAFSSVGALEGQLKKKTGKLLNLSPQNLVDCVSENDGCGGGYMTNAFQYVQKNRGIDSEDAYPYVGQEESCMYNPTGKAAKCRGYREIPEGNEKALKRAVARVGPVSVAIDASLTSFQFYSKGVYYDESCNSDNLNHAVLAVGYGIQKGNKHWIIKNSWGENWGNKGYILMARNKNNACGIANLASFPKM
Reported Ki values follow for various molecules
ASSAY_ENDPOINT: Ki (µM)

SMILES_RECORD	LIMIT_QUALIFIER	READING
O=C(N[C@@H](CCc1ccccc1)CNc1ccc(OC(F)(F)F)cc1)[C@@H](CC(=O)N1CCOCC1)c1ccccc1	=	0.71
CC[C@@H](CNc1ccc(OC(F)(F)F)cc1)NC(=O)[C@H](CCc1ccccc1)CC(=O)N1CCOCC1	=	0.291
CC(C)[C@@H](CNc1ccc(OC(F)(F)F)cc1)NC(=O)[C@@H](CC(=O)N1CCOCC1)c1cccc(C(F)(F)F)c1	>	100
CS(=O)(=O)CC[C@H](CNc1ccc(OC(F)(F)F)cc1)NC(=O)[C@@H](CC(=O)N1CCOCC1)CC1CCCCC1	=	5.41
C[C@@H](CNc1ccc(OC(F)(F)F)cc1)NC(=O)[C@@H](CC(=O)N1CCOCC1)CC1CCCCC1	=	24.3
CC(C)[C@@H](CNc1ccc(OC(F)(F)F)cc1)NC(=O)[C@@H](CC(=O)N1CCOCC1)c1ccc(F)cc1	=	11.5
O=C(N[C@H](CNc1ccc(OC(F)(F)F)cc1)c1ccccc1)[C@@H](CC(=O)N1CCOCC1)CC1CCCCC1	>	30
CCC[C@@H](CNc1ccc(OC(F)(F)F)cc1)NC(=O)[C@@H](CC(=O)N1CCOCC1)CC1CCCC1	=	0.217

---

Measured Ki on Procathepsin L (Homo sapiens, UniProt P07711) follows.
Sequence (P07711 whole entry): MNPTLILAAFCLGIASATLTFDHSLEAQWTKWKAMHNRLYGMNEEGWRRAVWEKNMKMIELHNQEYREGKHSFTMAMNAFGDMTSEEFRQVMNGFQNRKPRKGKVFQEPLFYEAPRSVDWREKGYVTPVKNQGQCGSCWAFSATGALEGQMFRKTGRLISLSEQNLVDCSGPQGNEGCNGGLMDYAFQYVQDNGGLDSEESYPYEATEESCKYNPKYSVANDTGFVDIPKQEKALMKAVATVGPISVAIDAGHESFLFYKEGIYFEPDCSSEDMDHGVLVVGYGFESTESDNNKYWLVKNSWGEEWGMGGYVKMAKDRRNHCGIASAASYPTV

SMILES_RECORD	TARGET_OR_SYSTEM	Ki
C[C@@H](CNc1ccc(OC(F)(F)F)cc1)NC(=O)[C@@H](CC(=O)N1CCOCC1)CC(C)(C)C	Procathepsin L (Homo sapiens, UniProt P07711)	> 100 µM
O=C(C[C@@H](CC1CCCCC1)C(=O)N1CCOCC1)NCCNc1ccc(F)cc1	Procathepsin L (Homo sapiens, UniProt P07711)	> 100 µM
CC(C)[C@@H](CNc1ccc(OC(F)(F)F)cc1)NC(=O)[C@H](CCc1ccccc1)CC(=O)N1CCOCC1	Procathepsin L (Homo sapiens, UniProt P07711)	0.372 µM
C[C@@H](CNc1ccc(OC(F)(F)F)cc1)NC(=O)[C@H](CCC1CCCCC1)CC(=O)N1CCOCC1	Procathepsin L (Homo sapiens, UniProt P07711)	> 30 µM
